system: NCI-H522 lung; assay: NCI tumour cell line growth inhibition, 48 h
TEST_READOUT: TGI (µM)
Lab book: enter the figure in µM, no units written.

COMPOUND	READING_UNIT	TGI
CCOC(=O)[C@@H](C)C[C@H](Cc1ccccc1)NC(=O)c1csc([C@@H](C[C@H](C(C)C)N(C)C(=O)[C@H](CC)NC(=O)[C@H]2CCCCN2C)OC(C)=O)n1	µM	0.362
Cc1ccc2[nH]c3c(c2c1)C1CCC(C(C)(C)C)CC1C1C(=O)N(c2ccc4c(c2)OCO4)C(=O)C31 (stereo not drawn)	µM	7.18
C[C@H]1[C@H]2[C@H]3CC[C@@H]4[C@@]5(C)C/C(=C/c6cccnc6)C(=O)C(C)(C)[C@@H]5CC[C@@]4(C)[C@]3(C)CC[C@]23CO[C@]1(C)[C@@H](C(=O)/C=C\c1cccnc1)C3	µM	3.07

Value of TGI reported for the compound COc1cccc(Cc2cc(=O)c3ccc(C)nc3[nH]2)c1 is 65

----------
tested on: RPMI-8226 leukemia; test: NCI tumour cell line growth inhibition, 48 h
TEST_READOUT: TGI (µM)
Answer with a number only, understood to be in µM.

Field TGI (entry COc1cc(OC)c(NC(=O)c2cc3ccccc3cc2O)cc1Cl ) reads 10.9

Notebook: CSc1ncnc2c1ncn2C1OC(CO)C(O)OC1O (stereo not given) , TGI read as 79.5

Short answer for O=C1C(Cl)C(c2cc3cc(Br)ccc3nc2Cl)N1c1ccc(Cl)cc1 (stereo not given) : TGI was 14.1

For reference, reported TGI for Nc1nc(Nc2ccccc2)sc1C(=O)c1cccs1 stands at 37

Record COc1cc(/C=C\c2cccnc2)cc(OC)c1OC . Reported TGI: 47.7

Entry COC(=O)c1c2c(cc3c1CC1(Cc4cc5c(cc4C1=O)CCC5)C3)CCC2 (stereo not given) ; TGI = 57.7

For reference, reported TGI for COc1ccc(-c2c(-c3cc(OC)c(OC)c(OC)c3)noc2N)cc1 stands at 5.96

The molecule CC[C@@]1(O)C(=O)OCc2c1cc1n(c2=O)Cc2c-1nc1cc3c(cc1c2C)OCO3 showed TGI equal to 0.23

So for Cc1cc(Oc2ccc3nc(COc4ccc(CC5SC(=O)NC5=O)cc4)n(C)c3c2)cc(C)c1N (stereo not given) , the logged TGI turned out to be 45.4

----------
system: HCT-15 colon; assay: NCI tumour cell line growth inhibition, 48 h
TEST_READOUT: TGI

Example entries begin here.
MOLECULE	TESTED_ON	RECORDED_RESULT
CCN(CC)CCCC(C)N=c1cc(Nc2cc(=NC(C)CCCN(CC)CC)c3cc(OC)ccc3o2)oc2ccc(OC)cc12 (stereo not given)	HCT-15 colon	2.33 µM
COc1cccc(Cc2cc(=O)c3ccc(C)nc3[nH]2)c1	HCT-15 colon	> 100 µM
CN(Cc1ccccc1)C(=NC#N)N(C)Cc1ccccc1	HCT-15 colon	> 100 µM
CCCCCCCCCCCCCCCCOCC(CCl)OP(=O)(O)OP(=O)(O)OCC1OC(n2ccc(N)nc2=O)C(O)C1O (stereo not given)	HCT-15 colon	> 100 µM
C=CCSSCC=C	HCT-15 colon	> 100 µM

Field TGI (entry CCCCCCCCCCCCOC1C(C(CC(=O)N2CCN(c3cccc(C(F)(F)F)c3)CC2)NS(=O)(=O)c2cc(Cl)cc(Cl)c2)OC2OC(C)(C)OC21 (stereo not given) ) reads > 100 µM

The molecule identified as S=c1nc(Cl)cc2[nH]c(Cl)cn12 registered its TGI at > 100 µM

Noted for COc1ccc(-c2c(-c3cc(OC)c(OC)c(OC)c3)noc2N)cc1 : its TGI reads > 100 µM

For this molecule ( CSc1ncnc2c1ncn2C1OC(CO)C(O)OC1O (stereo not given) ), measured TGI is > 100 µM

The recorded TGI for entry COc1ccc(/C(CC2OC(=O)c3ccccc32)=N\NC(=O)C[N+](C)(C)C)cc1 (stereo not given) equals 44.8 µM

----------
# TGI annotations
tested on: SK-MEL-2 melanoma; experiment: NCI tumour cell line growth inhibition, 48 h

Consider the reported TGI for these compounds:
COMPOUND	TGI
CC(C)(C)OC(=O)NC1CCC(C(C)(C)C)CC1 (stereo unspecified)	71.3 µM
CN(C)CCCNC(=O)c1cncnc1Nc1ccc(OCc2cccc(F)c2)c(Cl)c1	4.07 µM
CC(=O)[C@@]1(O)[C@H](C)C[C@H]2[C@@H]3C=C(C)C4=Cc5c(cnn5-c5ccccc5)C[C@]4(C)[C@H]3[C@@H](O)C[C@@]21C	5.88 µM
CN(CC(=O)O)c1ncc2c(n1)-c1ccccc1OC2	> 100 µM
CCOP(=O)(OCC)C(C(=O)OC)C(=O)C(=O)Nc1c(C)cc(Br)cc1C (stereo unspecified)	> 100 µM
C=CN(C)S(C)(=O)=O	> 100 µM

Reported TGI of O=C(Oc1ccc(Cl)cc1[N+](=O)[O-])c1ccccc1 : > 100 µM

Looking up COc1c(OC/C=C(\C)CCC=C(C)C)ccc2ccc(=O)oc12 , I see its TGI listed as > 100 µM

Record COc1ccc2c(ccc3c(COC(=O)NC(C)C)c(COC(=O)NC(C)C)n(C)c32)c1 , field TGI: 32.5 µM

For this compound ( N#CC1=C(N)NC(=S)NC12Nc1ccccc1N2 ), measured TGI is > 100 µM

# TGI (compound: Cc1cc(-c2nc3ccc(F)cc3s2)ccc1N ) is > 100 µM

----------
The reader will find reported TGI values listed item by item below.
tested on: SF-268 CNS; assay: NCI tumour cell line growth inhibition, 48 h

Answered cases to consult:
MOLECULE	RECORDED_RESULT
C=C(CN1CCN(c2cccc(C(F)(F)F)n2)CC1)c1ccc(C(=S)Nc2ccccc2N)cc1	> 100 µM
[O-][n+]1onc2c1/C(=N/O)CCC2	> 100 µM
C/C(=N\NC(=S)N(C)CCN(C)C(=S)N/N=C(\C)c1ccccn1)c1ccccn1	12 µM

Sample O=C(COc1ccc(Cl)c(Cl)c1)N(Cc1ccccc1)Cc1ccc[n+](Cc2ccc(Cl)cc2S(=O)(=O)F)c1 ; TGI observed: > 100 µM

Looking up CC(=O)OCC(OC(C)=O)C(OC(C)=O)C(OC(C)=O)C(C=NN(C(C)=O)S(=O)(=O)c1ccc(/C=C2\NC(=O)NC2=O)cc1)OC(C)=O (centres undefined) , I see its TGI listed as > 100 µM

----------
Measured TGI accompanies every entry in the list below.
system: SK-MEL-28 melanoma; assay: NCI tumour cell line growth inhibition, 48 h

COMPOUND	TGI
COc1ccc(NC(=S)N/N=C(\C)c2nc3ncccc3[nH]2)cc1	> 100 µM
CC1=C[P+](Cc2ccccc2)(c2ccccc2)CC1 (stereo not given)	> 100 µM
O=C(Nc1ccc(Cl)c(Cl)c1)N1N=C2c3ccccc3CCC2C1c1ccc(Cl)cc1 (stereo not given)	> 100 µM
O=C1CC(O)(c2ccccc2)C(c2ccccc2)=C1c1ccccc1 (stereo not given)	> 100 µM
CCCCCCCCCCCCOC1C(C(CC(=O)N2CCN(c3cccc(C(F)(F)F)c3)CC2)NS(=O)(=O)c2cc(Cl)cc(Cl)c2)OC2OC(C)(C)OC21 (stereo not given)	> 100 µM

Data point: CN(C)/C=N/NC(=O)/C(C#N)=C/N(C)C ; TGI = > 100 µM

Item: O=C1c2ccccc2-c2c1c1c(O)cccc1n2-c1ccccc1 | TGI: > 100 µM

Recorded TGI (compound O[C@@H]1C[C@H]2N3CC[C@@]2(c2cc4c(cc2C3)OCO4)[C@H]2O[C@@H]12 ): > 100 µM

What the record says about CCOC(=O)C(C)(C)C(O)C(C)C (stereo not given) : TGI is > 100 µM

So for C/C(=C(\c1ccc(OCCN2CCCCCC2)cc1)c1ccc(OC(=O)Cc2ccccc2)cc1)c1ccc(Cl)cc1 , the logged TGI turned out to be 5.03 µM

Lookup result for COC(=O)/C=C(/OC)[C@H](C)[C@H](/C=C/c1csc(-c2csc(C(C)C)n2)n1)OC ; measured TGI: > 100 µM

Documented TGI of CC(=O)O[C@H]1C(=O)[C@@]2(C)[C@H]([C@H](OC(=O)c3ccccc3)[C@]3(O)C[C@H](OC(=O)[C@H](O)[C@@H](NC(=O)C(C)(C)C)c4ccccc4)C(C)=C1C3(C)C)[C@]1(OC(C)=O)CO[C@@H]1C[C@@H]2O : > 10 µM

// TGI value for Cc1ccc2c(=O)cc(-c3ccsc3)[nH]c2n1 : > 100 µM

----------
tested on: MALME-3M melanoma; assay: NCI tumour cell line growth inhibition, 48 h
TEST_READOUT: log10(TGI) (log10 of the value in µM)
Could you please treat all values as log10 of TGI in µM?

In the examples that follow, each entry is paired with its recorded log10(TGI).
MOLECULE	log10(TGI)
Cc1cn2c(/C=N/N=C(N)N)c(-c3cccnc3)nc2s1	1.33
COC(=O)/C=C(\S/C(=N\n1cc(C(=O)OC)c(C(=O)OC)c1-c1ccc(C)cc1)c1ccc(C)cc1)C(=O)OC	1.14
COc1ccc(CNc2nc3cc(N)cc(N)c3nc2-c2ccccc2)cc1	1.35

The molecule O=C1OC(c2ccccc2)(c2cc(Br)c(O)c(Br)c2)c2ccccc21 (centres undefined) , tested on MALME-3M melanoma, showed log10(TGI) of 1.89
